Test system: K24384-001-R-PDC complex spheroids, viability;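 note: spheroids exposed to compounds for seven days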
Assay: Anticancer human tumor K24384-001-R-PDC patient-derived pancreatic adenocarcinoma cell line growth inhibition [GQUAD]
Settings: second compound 3.16 µM; first compound 0.0316 µM; active compounds read low
PARAMETER MEASURED: viability, T/C (%)
Report the value in % with no unit label.

MOLECULE	VALUE UNITS	viability, T/C
CC(C)n1c(=O)n(C)c2cnc3cc(F)c(-c4ccc(OCCCN5CCCCC5)nc4)cc3c21 + CN(C)c1ccc(Nc2c3ccc(NC(=O)CCN4CCCC4)cc3nc3cc(NC(=O)CCN4CCCC4)ccc23)cc1	%	90.2

Inquiry: Name the recorded viability, T/C of the molecule listed here: COc1cc(C2c3cc4c(cc3C(OC3OC5COC(C)OC5C(O)C3O)C3COC(=O)C23)OCO4)cc(OC)c1O (centres undefined) + Cc1[nH]c2ccc(F)cc2c1-c1nc2c3cccnc3c3ncccc3c2[nH]1
Reply text: 83.2

Inquiry: Specify reported viability, T/C for the molecule shown: COc1ccc([C@@H](O)c2cc(-c3ncnc4cc(N5CCOCC5)ccc34)c(F)cc2Cl)nn1 + Cc1cnc(CNC(=O)c2c(=O)c3ccc(N4CCCN(C)CC4)nc3n3c2sc2ccccc23)cn1
Reply text: 36.7

Inquiry: Output viability, T/C of CC(=O)O[C@H]1C(=O)[C@@]2(C)[C@H]([C@H](OC(=O)c3ccccc3)[C@]3(O)C[C@H](OC(=O)[C@H](O)[C@@H](NC(=O)c4ccccc4)c4ccccc4)C(C)=C1C3(C)C)[C@]1(OC(C)=O)CO[C@@H]1C[C@@H]2O + CN(C)c1ccc(Nc2c3ccc(NC(=O)CCN4CCCC4)cc3nc3cc(NC(=O)CCN4CCCC4)ccc23)cc1
Reply text: 29.4
